# experimentalDetails: differential killing of epithelial or mesenchymal cells, primary screen, imaging, PC-3E GFP, TEM4-18 mCherry, co-culture (AID 1345086);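 further: cells exposed to compound for 72 h before imaging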
# testConditions: imaging cell counts, measured here: epithelial PC-3E GFP cell survival, at 1 µM
measuredProperty: normalised cell number

-- ask Need normalised cell number of COc1cc(O)cc(C(=O)c2ccccc2)c1S(=O)(=O)O , thanks.
-- reply 1.17

-- ask What about this compound? O=c1[nH]c(=O)n([C@H]2C[C@H](O)C(CO)O2)cc1I (some centres undefined)
-- reply 1.09

-- ask What about this compound? O=[N+]([O-])O[C@@H]1CO[C@H]2[C@@H]1OC[C@@H]2O
-- reply 1.15

-- ask What about this compound? CC(=O)OCC(=O)[C@@]1(O)CCC2C3CCC4=CC(=O)CC[C@]4(C)C3C(=O)C[C@@]21C (some centres undefined)
-- reply 1.08

-- ask What about this compound? CC(C)CCCC(C)C1CCC2C3CC[C@H]4C[C@@H](O)CC[C@]4(C)C3CC[C@]12C (some centres undefined)
-- reply 1.04

-- ask What about this compound? CC(=O)[C@H]1CCC2C3C=CC4=CC(=O)CC[C@@]4(C)C3CC[C@@]21C (some centres undefined)
-- reply 1.28

-- ask What about this compound? CC1CC(OC(=O)C(O)c2ccccc2)CC(C)(C)C1 (centres undefined)
-- reply 1.03

-- ask What about this compound? Nc1nc2ncc(CNc3ccc(C(=O)NC(CCC(=O)O)C(=O)O)cc3)nc2c(=O)[nH]1 (centres undefined)
-- reply 1.04

-- ask What about this compound? CC1(C)C(=O)C=C[C@@]2(C)C1C=C[C@]1(C)C2CC[C@@]2(C)[C@H](c3ccoc3)OC(=O)[C@H]3O[C@]321 (some centres undefined)
-- reply 0.56
